// reported GI50 per item
Tested on: KM12
Test: NCI tumour cell line growth inhibition, 48 h
Calls of active or inactive are those of the source. No stated cut-off is given here; in the data, active = GI50 up to about 1.1 µM and inactive = higher.
measure name: GI50

>>> df
                                   compound               result
0  CC(=O)NC1CC(C(C)(C)NC(C)=O)CC=C1C (stereo unspecified)  > 100 µM (inactive)
1  CN(C)c1ccc(N=O)c(O)c1.CN(C)c1ccc(N=O)c(O)c1.[SiH4]   14.6 µM (inactive)
2    C#CCn1c2c(c3ccccc3c1=O)C(=O)c1ccccc1-2   10.1 µM (inactive)
3  COc1ccc(/C=C2\NC(=S)N(CN3CCOCC3)C2=O)cc1  > 100 µM (inactive)
4                     CN(C)C(=O)NC(=S)N(C)C  > 100 µM (inactive)
5  CCOC(=O)C(CCc1ncnc2c1ncn2Cc1ccccc1)(CCc1ncnc2c1ncn2Cc1ccccc1)C(=O)OCC   46.9 µM (inactive)

---

// reported GI50 per item
Test system: IGROV-1
Experiment: NCI tumour cell line growth inhibition, 48 h
Activity calls are given as the source filed them. No stated cut-off is given here; in the data, active = GI50 up to about 1.1 µM and inactive = higher.
measure name: GI50

>>> df
                                   molecule               result
0  CC(=O)Nc1ccc2c(c1)/C(=N/c1ccc(C(=O)O)cc1)c1ccccc1-2   46.3 µM (inactive)
1          Cc1nc2c(n1CCCl)C(=O)c1ccccc1C2=O   11.6 µM (inactive)
2  COS(=O)c1cc(Cl)cc(Cl)c1OC(=O)CSSCC(=O)Oc1c(Cl)cc(Cl)cc1S(=O)OC (stereo not given)   19.4 µM (inactive)
3  CC(=O)Nc1ccc(-c2nnc(SCC(=O)Nc3ccc([N+](=O)[O-])cc3)o2)cc1     11 µM (inactive)
4                       CCOc1nnnc2[nH]cnc12  > 100 µM (inactive)
5  C=C1CN(C(=O)c2cc3cc(OC)c(OC)c(OC)c3[nH]2)c2cc([N+](=O)[O-])ccc21  > 100 µM (inactive)
6  COc1ccc(Oc2nc3c(N)cc(C(F)(F)F)cc3nc2-c2ccccc2)cc1   13.6 µM (inactive)
7    CC(C)(C)NC(=O)NC12CC3CC(CC(F)(C3)C1)C2  > 100 µM (inactive)
8  COc1ccc(C(Nc2ccccn2)c2cc(C(C)(C)C)cc(C(C)(C)C)c2O)cc1 (stereo not given)     24 µM (inactive)
9  CNC(=O)C(C)NC(=O)C(Cc1ccccc1)NC(=O)OC(C)(C)C (stereo not given)  > 100 µM (inactive)

---

Test system: T47D
Experiment: NCI tumour cell line growth inhibition, 48 h
The source made the active and inactive calls. Rule as the data show it: active = GI50 up to about 1.1 µM and inactive = higher.
Outcomes: active, inactive

>>> df
                                   compound     group
0  O=C1CC2(CCC(O)(c3ccco3)C(C(=O)c3ccco3)C2)C(=O)c2ccccc2N1 (centres undefined)  inactive
1  CC(=O)c1c(N=[N+]=[N-])c2cccc3c2n(c1=O)CCC3  inactive
2  Cc1cc(=O)nc(S(=O)(=O)NC(=S)Nc2ccc(Br)cc2)[nH]1  inactive
3  O=C(/C(=N\Nc1ccc([N+](=O)[O-])cc1[N+](=O)[O-])NC12CC3CC(CC(C3)C1)C2)C(Br)C(=O)c1ccccc1 (centres undefined)  inactive
4  Cc1c(F)c(NC(=O)CN(C)C)c2c(=O)cc(-c3ccc(NC(=O)CN(C)C)c(F)c3)oc2c1F  inactive
5  CCOC(=O)C(Cc1ccc(N(CCCl)CCCl)cc1)NC(=O)C(Cc1ccccc1)NC(C)=O (centres undefined)    active
6  C=C(C)[C@@H]1CCC2=C[C@H](OC2=O)[C@@]2(C)C[C@@H]2C2=CC(C)=C(O2)[C@H]1O  inactive
7       COc1cccc(CCN2CCN(CCCc3ccccc3)CC2)c1  inactive
8  COc1c(C(=O)O)cccc1-c1cccc(C(=O)NCCN(CCNC(=O)c2cccc(-c3cccc(C(=O)O)c3OC)c2OC)CCNC(=O)c2cccc(-c3cccc(C(=O)O)c3OC)c2OC)c1OC  inactive

Hello, the source for this data is ChEMBL document CHEMBL1201862, in case you need it.
